assay: in vivo; parameters: species or system cynomolgus monkeys; settings: both sexes, cynomolgus monkey, po, 300 mg
Starred links: 1 amine or outer side, 2 acyl side, 3 side chain; linkers in the order of their positions; H or OH if unused. Non-standard residues stand in square brackets, D forms with d. Groups on a side chain read outwards from the residue. *: point of attachment. C18 diacid = O=C(O)CCCCCCCCCCCCCCCCC(=O)*; αMePhe(2-F) = C[C@](N)(Cc1ccccc1F)C(=O)O; γGlu = O=C(O)[C@H](CCC(=O)[*:2])N[*:1]; αMe4Pal = C[C@](N)(Cc1ccncc1)C(=O)O; αMeY = C[C@](N)(Cc1ccc(O)cc1)C(=O)O; 4Pal = N[C@@H](Cc1ccncc1)C(=O)O; αMeL = CC(C)C[C@](C)(N)C(=O)O; αMeS = C[C@](N)(CO)C(=O)O; Orn = NCCC[C@H](N)C(=O)O; AEEA = NCCOCCOCC(=O)O; Aib = CC(C)(N)C(=O)O
readout.kind: Cmax (nM)
Give bare numbers, in nM.

H-Y[Aib]QGTFTSD[4Pal]SQ[αMeL]LDKK([γGlu-γGlu-C18 diacid])AQ[αMe4Pal]AFIEYLIAGGPSSGAPPPSGE-NH2 [Example 883]    43.6
H-Y[Aib]QGT[αMePhe(2-F)]TSD[4Pal]SI[αMeL]LD[Orn]K([γGlu-γGlu-C18 diacid])AQ[αMe4Pal][Orn]FI[dE][αMeY]LIEGGPSSGEPPPETE-NH2 [Example 686]    249
H-Y[Aib]QGT[αMePhe(2-F)]TSD[4Pal][αMeS]I[αMeL]LD[Orn]K([AEEA-γGlu-C18 diacid])AQ[αMe4Pal]EFI[dE][αMeY]LIEGGPSSGAPPPSGGGE-NH2 [Example 741]    95.8
H-Y[Aib]QGTFTSD[4Pal]SQ[αMeL]LD[Orn]K([γGlu-γGlu-C18 diacid])AQ[αMe4Pal]AFIE[αMeY]LIEGGPSSGEPPPSGSEE-NH2 [Example 1027]    135

# return recorded Cmax for input H-Y[Aib]QGT[αMePhe(2-F)]TSD[4Pal][αMeS]ILLD[Orn]K([γGlu-γGlu-C18 diacid])AQ[Aib][Orn]FI[dE]YLIEGGPSSGEPPPSGTGE-NH2 [Example 548] 75.7

src = patent US20240270821A1
